Sourced from ChEMBL document CHEMBL3864167

Each entry below lists one item and its recorded IC50 value.
Biological target: Voltage-dependent T-type calcium channel subunit alpha-1G (Homo sapiens, UniProt O43497)
Sequence (O43497 whole entry): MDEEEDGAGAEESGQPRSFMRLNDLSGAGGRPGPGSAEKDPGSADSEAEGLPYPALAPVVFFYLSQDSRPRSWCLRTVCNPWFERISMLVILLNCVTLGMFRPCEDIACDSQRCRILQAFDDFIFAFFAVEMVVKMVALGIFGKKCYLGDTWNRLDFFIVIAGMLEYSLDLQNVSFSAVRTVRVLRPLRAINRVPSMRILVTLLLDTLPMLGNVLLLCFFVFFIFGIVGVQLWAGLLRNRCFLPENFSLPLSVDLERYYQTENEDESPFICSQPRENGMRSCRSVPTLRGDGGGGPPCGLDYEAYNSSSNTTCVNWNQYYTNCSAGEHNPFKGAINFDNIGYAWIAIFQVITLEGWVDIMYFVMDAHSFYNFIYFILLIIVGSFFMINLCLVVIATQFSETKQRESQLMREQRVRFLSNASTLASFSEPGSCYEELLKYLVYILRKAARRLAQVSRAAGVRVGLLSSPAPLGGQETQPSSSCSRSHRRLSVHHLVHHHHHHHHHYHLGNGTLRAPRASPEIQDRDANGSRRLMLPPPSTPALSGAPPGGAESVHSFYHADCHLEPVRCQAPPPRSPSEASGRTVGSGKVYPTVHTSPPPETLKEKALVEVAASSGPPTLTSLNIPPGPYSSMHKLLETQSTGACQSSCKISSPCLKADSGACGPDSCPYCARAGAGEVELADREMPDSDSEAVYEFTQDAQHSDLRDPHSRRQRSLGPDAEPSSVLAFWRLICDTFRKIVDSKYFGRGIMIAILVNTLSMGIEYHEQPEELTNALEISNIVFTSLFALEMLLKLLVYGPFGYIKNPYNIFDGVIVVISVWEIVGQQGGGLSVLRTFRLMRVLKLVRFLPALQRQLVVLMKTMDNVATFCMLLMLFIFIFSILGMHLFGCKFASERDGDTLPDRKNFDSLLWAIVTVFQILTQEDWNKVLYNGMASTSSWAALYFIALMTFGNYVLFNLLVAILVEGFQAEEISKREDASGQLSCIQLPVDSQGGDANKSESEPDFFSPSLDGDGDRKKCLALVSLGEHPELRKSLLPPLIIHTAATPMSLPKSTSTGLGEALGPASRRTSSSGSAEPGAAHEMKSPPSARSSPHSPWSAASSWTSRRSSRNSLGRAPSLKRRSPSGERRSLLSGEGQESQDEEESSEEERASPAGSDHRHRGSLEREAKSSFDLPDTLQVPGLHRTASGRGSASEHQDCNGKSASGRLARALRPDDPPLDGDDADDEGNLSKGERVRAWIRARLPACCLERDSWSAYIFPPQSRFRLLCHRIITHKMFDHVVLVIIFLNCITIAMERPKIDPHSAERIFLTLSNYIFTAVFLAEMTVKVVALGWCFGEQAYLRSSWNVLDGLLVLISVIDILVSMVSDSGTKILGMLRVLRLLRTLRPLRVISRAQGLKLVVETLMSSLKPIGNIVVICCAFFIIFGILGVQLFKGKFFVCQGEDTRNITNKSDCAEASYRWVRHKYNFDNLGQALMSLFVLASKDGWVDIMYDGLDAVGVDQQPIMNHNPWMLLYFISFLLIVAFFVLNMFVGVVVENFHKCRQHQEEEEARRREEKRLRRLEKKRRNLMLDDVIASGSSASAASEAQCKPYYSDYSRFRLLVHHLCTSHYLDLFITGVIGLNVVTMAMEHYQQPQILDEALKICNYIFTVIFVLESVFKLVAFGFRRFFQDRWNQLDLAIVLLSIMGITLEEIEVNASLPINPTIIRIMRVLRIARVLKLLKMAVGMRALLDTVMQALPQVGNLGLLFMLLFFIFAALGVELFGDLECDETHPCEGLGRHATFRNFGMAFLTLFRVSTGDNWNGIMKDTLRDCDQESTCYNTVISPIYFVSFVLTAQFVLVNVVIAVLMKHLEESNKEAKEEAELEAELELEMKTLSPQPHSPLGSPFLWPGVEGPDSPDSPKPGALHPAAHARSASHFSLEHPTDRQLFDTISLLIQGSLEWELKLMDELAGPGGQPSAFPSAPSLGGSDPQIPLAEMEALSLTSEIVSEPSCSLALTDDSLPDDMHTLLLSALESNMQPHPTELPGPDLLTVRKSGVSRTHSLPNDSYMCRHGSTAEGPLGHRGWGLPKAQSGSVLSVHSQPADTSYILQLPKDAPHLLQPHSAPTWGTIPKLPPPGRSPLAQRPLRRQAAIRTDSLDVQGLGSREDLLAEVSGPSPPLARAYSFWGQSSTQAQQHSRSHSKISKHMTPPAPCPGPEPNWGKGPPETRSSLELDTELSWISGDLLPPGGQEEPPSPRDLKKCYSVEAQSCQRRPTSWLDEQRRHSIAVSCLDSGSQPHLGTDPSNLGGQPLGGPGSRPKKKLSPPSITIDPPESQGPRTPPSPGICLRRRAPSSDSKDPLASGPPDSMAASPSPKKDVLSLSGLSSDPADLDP
Assay: Channel blocking activity at recombinant human CaV 3.1 channel expressed in HEK293 cells assessed as inhibition of Ca2+ flux preincubated for 3 mins followed by CaCl2 addition by fluo-4 dye-based FLIPR assay

Molecule | IC50
COc1ccc(CN2C[C@@H](C)N(C(=O)NCc3ccccc3)[C@@H](C)c3ccccc32)cn1 (racemic) | 45 nM
C[C@@H]1CN(Cc2ccccc2)c2cccc(F)c2[C@H](C)N1C(=O)Nc1cccnc1 (racemic) | 20 nM
C[C@@H]1CN(Cc2ccccc2F)c2ccccc2[C@H](C)N1C(=O)Nc1cccnc1 (racemic) | 4 nM
C[C@@H]1CN(Cc2ccccc2)c2ccccc2[C@H](C)N1C(=O)Nc1cccnc1 (racemic) | 42 nM
C[C@@H]1CN(Cc2ccccc2)c2ccccc2[C@H](C)N1CC1CCOCC1 (racemic) | 6110 nM
C[C@@H]1CN(c2ccccc2)c2ccccc2[C@H](C)N1C(=O)NCc1ccccc1 (racemic) | 256 nM
C[C@@H]1CN(Cc2ccccc2)c2cnccc2[C@H](C)N1C(=O)CCc1ccc(F)cc1 (racemic) | 196 nM
C[C@@H]1CN(Cc2ccccc2)c2ccccc2[C@H](C)N1C(=O)N(C)Cc1ccccc1 (racemic) | 457 nM

----------
Biological target: Voltage-dependent T-type calcium channel subunit alpha-1G (Homo sapiens, UniProt O43497)
Assay: Channel blocking activity at recombinant human CaV 3.1 channel expressed in HEK293 cells assessed as inhibition of Ca2+ flux preincubated for 3 mins followed by CaCl2 addition by fluo-4 dye-based FLIPR assay
Type: cell-based

Molecule | Tested system | IC50
C[C@@H]1CN(Cc2cccc(C(F)(F)F)n2)c2ccccc2[C@H](C)N1C(=O)NCc1ccccc1 (racemic) | Voltage-dependent T-type calcium channel subunit alpha-1G (Homo sapiens, UniProt O43497) | 25 nM
C[C@@H]1CN(Cc2ccccc2)c2c(cnn2C)[C@H](C)N1C(=O)NCc1ccccc1 (racemic) | Voltage-dependent T-type calcium channel subunit alpha-1G (Homo sapiens, UniProt O43497) | > 9400 nM
COc1ccc(CNC(=O)N2[C@H](C)CN(Cc3ccccc3)c3ccccc3[C@@H]2C)cc1 (racemic) | Voltage-dependent T-type calcium channel subunit alpha-1G (Homo sapiens, UniProt O43497) | 8 nM
C[C@@H]1CN(Cc2ccccc2)c2cccc(F)c2[C@H](C)N1C(=O)NC1COC1 (racemic) | Voltage-dependent T-type calcium channel subunit alpha-1G (Homo sapiens, UniProt O43497) | 40 nM
COc1ccc(CNC(=O)N2[C@H](C)CN(Cc3ccc(C(F)(F)F)o3)c3cnccc3[C@@H]2C)cc1 (racemic) | Voltage-dependent T-type calcium channel subunit alpha-1G (Homo sapiens, UniProt O43497) | 13 nM
C[C@@H]1CN(Cc2ccccc2)c2c(F)cccc2[C@H](C)N1C(=O)Nc1cccnc1 (racemic) | Voltage-dependent T-type calcium channel subunit alpha-1G (Homo sapiens, UniProt O43497) | 178 nM
C[C@@H]1CN(Cc2ccccc2)c2ccccc2[C@H](C)N1C(=O)OCc1ccccc1 (racemic) | Voltage-dependent T-type calcium channel subunit alpha-1G (Homo sapiens, UniProt O43497) | 420 nM
COc1ccc2c(c1)[C@H](C)N(C(=O)Nc1cccnc1)[C@H](C)CN2Cc1ccccc1 (racemic) | Voltage-dependent T-type calcium channel subunit alpha-1G (Homo sapiens, UniProt O43497) | 390 nM
